Catalogue of growth readings, one per entry.
# System: Ruminococcus gnavus DSM 108212
# assay details: growth (OD595) fold change vs plate DMSO controls (fold change (ratio)); higher = more growth
# experimental conditions: incubation time: 27 h, anaerobic, 37 °C
Counter-ions that a name gives are not always drawn.
Kindly provide the number alone.

Recorded results for 6 compounds are shown here.
CN1CCC[C@@H]1CCO[C@](C)(c1ccccc1)c1ccc(Cl)cc1 [Clemastine fumarate] (20 µM) = 0.749
CC1(C)[C@H](C(=O)O)N2C(=O)C[C@H]2S1(=O)=O [Sulbactam] (20 µM) = 1.21
O=C1CN(/N=C/c2ccc(-c3ccc([N+](=O)[O-])cc3)o2)C(=O)N1 [Dantrolene sodium salt] (20 µM) = 0.79
NCCc1cc[nH]n1 [Betazole hydrochloride] (20 µM) = 1.02
CCCCc1ncc(/C=C(\Cc2cccs2)C(=O)O)n1Cc1ccc(C(=O)O)cc1 [Eprosartan mesylate] (20 µM) = 0.916
OCCOCCN1CCN(C(c2ccccc2)c2ccc(Cl)cc2)CC1 (configuration not stated) [Hydroxyzine dihydrochloride] (20 µM) = 0.906

### Prompt State the recorded growth for this entry: CC(C)NC(=N)NC(=N)Nc1ccc(Cl)cc1 [Proguanil hydrochloride] (20 µM)
### Response 0.969

### Prompt Now consider C[C@H](NCc1ccc(OCc2cccc(F)c2)cc1)C(N)=O [Safinamide] (20 µM) and answer again.
### Response 1.07

### Prompt Please answer likewise for CC(=O)c1ccc2c(c1)N(CCCN1CCC(CCO)CC1)c1ccccc1S2 [Piperacetazine] (20 µM)
### Response 0

### Prompt And then CCC1NC(=O)c2cc(S(N)(=O)=O)c(Cl)cc2N1 (configuration not stated) [Quinethazone] (20 µM) , what is it?
### Response 0.755

### Prompt One more compound: C#C[C@]1(OC(C)=O)CC[C@H]2[C@@H]3CCC4=CC(=NO)CC[C@@H]4[C@H]3CC[C@@]21CC (mixture of isomers) [Norgestimate] (20 µM)
### Response 0.991

### Prompt Please do the same for CN(C)CCCOc1nn(Cc2ccccc2)c2ccccc12 [Benzydamine hydrochloride] (20 µM) as well.
### Response 1.04

### Prompt Follow-up entry: Cn1cc(C(=O)Nc2ccc(F)cc2-c2ccc(Cl)c(Cl)c2)c(C(F)F)n1 (20 µM)
### Response 1.21

### Prompt Repeat with c1ccc(CC2=NCCN2)cc1 [Tolazoline hydrochloride] (20 µM)
### Response 0.841

### Prompt Then CC(=O)Nc1ccc(OC(=O)c2ccccc2O)cc1 [Acetaminosalol] (20 µM) ?
### Response 0.994

### Prompt // query: O=C(O)c1cn(-c2ccc(F)cc2)c2cc(N3CCNCC3)c(F)cc2c1=O [Sarafloxacin] (20 µM)
### Response 0.896

### Prompt Param item: CC(C)Cc1ccc(CC(=O)O)cc1 [Ibufenac] (20 µM)
### Response 1.24

* * *

# Tested on: Ruminococcus gnavus DSM 108212
# assay details: growth (OD595) fold change vs plate DMSO controls (fold change (ratio)); higher = more growth
# experimental conditions: incubation time: 27 h, anaerobic, 37 °C
Where a name gives a salt, the structure may show the parent alone.
Label fulfilled when growth is at or above 0.9; otherwise label not fulfilled.

Answered cases to consult:
Nc1nc(=O)c2c([nH]1)NC[C@@H](CNc1ccc(C(=O)N[C@@H](CCC(=O)O)C(=O)O)cc1)N2C=O [Folinic acid calcium salt] (20 µM) = fulfilled
C[C@H](CS)C(=O)N1CCC[C@H]1C(=O)O [Captopril] (20 µM) = not fulfilled
O=C(O)CCNC(=O)c1ccc(/N=N/c2ccc(O)c(C(=O)O)c2)cc1 [Balsalazide disodium salt] (20 µM) = fulfilled

### Prompt Hello, I need to know if CN1CCN(C2=Nc3cc(Cl)ccc3Nc3ccccc32)CC1 [Clozapine] (20 µM) has measured growth not below 0.9. Thanks!
### Response not fulfilled

### Prompt For CN(CCOc1ccc(NS(C)(=O)=O)cc1)CCc1ccc(NS(C)(=O)=O)cc1 [Dofetilide] (20 µM) then?
### Response not fulfilled

### Prompt What do we get for COC(=O)[C@@H]1[C@H]2C[C@H]3c4[nH]c5ccccc5c4CCN3C[C@@H]2CC[C@@H]1O [Yohimbine hydrochloride] (20 µM) ?
### Response not fulfilled

* * *

# Test system: Escherichia coli IAI1
# assay details: fold change of Cadaverine concentration vs plate DMSO controls (fold change (ratio)); higher = more amine produced, active = hit call of the paper (significant change in both replicates, either direction);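 for the amine columns active = adjusted P below 0.05 in both replicates with a change the same way and a mean fold change under 0.8 or over 1.25; inactive = the rest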
# experimental conditions: incubation time: 27 h, anaerobic, 37 °C
Structures can show the parent of a compound that is named as a salt.
Valid outcomes are listed here; reply with one: true (1) (active), false (0) (inactive)

Reference set (5 entries):
CC(=O)N[C@@H](CC(=O)O)C(=O)N[C@@H](CCC(=O)O)C(=O)O [Spaglumic acid] (20 µM) = false (0)
CC(=O)Oc1ccc(C(c2ccc(OC(C)=O)cc2)c2ccccn2)cc1 [Bisacodyl] (20 µM) = false (0)
COC(c1ccccc1)(c1ccccc1)[C@H](Oc1nc(C)cc(C)n1)C(=O)O [Ambrisentan] (20 µM) = false (0)
Fc1ccc([C@@H]2CCNC[C@H]2COc2ccc3c(c2)OCO3)cc1 [Paroxetine hydrochloride] (20 µM) = true (1)
CC[C@H]1OC(=O)[C@H](C)[C@@H](O[C@H]2C[C@@](C)(OC)[C@@H](O)[C@H](C)O2)[C@H](C)[C@@H](O[C@@H]2O[C@H](C)C[C@H](N(C)C)[C@H]2O)[C@](C)(O)C[C@@H](C)[C@@H]2N[C@@H](COCCOC)O[C@H]([C@H]2C)[C@]1(C)O [Dirithromycin] (20 µM) = false (0)

### Prompt Query: recorded result category for C[C@H]1O[C@@H](O[C@H]2[C@@H](O)C[C@H](O[C@H]3[C@@H](O)C[C@H](O[C@H]4CC[C@@]5(C)[C@H](CC[C@@H]6[C@@H]5C[C@@H](O)[C@]5(C)[C@@H](C7=CC(=O)OC7)CC[C@]65O)C4)O[C@@H]3C)O[C@@H]2C)C[C@H](O)[C@@H]1O [Digoxin] (20 µM) in this test
### Response false (0)

### Prompt Follow-up item: C[C@@]12CC[C@@H]3[C@@](CC[C@H]4[C@@]3(C)CCC[C@@]4(C)C(=O)O)(CC1=O)C2 [Iso-Steviol] (50 µM)
### Response false (0)

* * *

Entries annotated with measured growth
# Tested on: Ruminococcus gnavus DSM 108212
# assay details: growth (OD595) fold change vs plate DMSO controls (fold change (ratio)); higher = more growth
# experimental conditions: incubation time: 27 h, anaerobic, 37 °C
Structures can show the parent of a compound that is named as a salt.
Lab note: record the figure alone, no unit after it.

Past entries and their recorded results:
CC#C[C@]1(O)CC[C@H]2[C@@H]3CCC4=CC(=O)CCC4=C3[C@@H](c3ccc(N(C)C)cc3)C[C@@]21C [Mifepristone] (20 µM) = 1.09
NC[C@@H]1O[C@H](O[C@H]2[C@@H](O)[C@H](O[C@@H]3[C@@H](O)[C@H](N)C[C@H](N)[C@H]3O[C@H]3O[C@H](CO)[C@@H](O)[C@H](O)[C@H]3N)O[C@@H]2CO)[C@H](N)[C@@H](O)[C@@H]1O [Paromomycin sulfate] (20 µM) = 0.984
C#C[C@]1(O)CC[C@H]2[C@@H]3CCC4=CC(=O)CC[C@@H]4[C@H]3CC[C@@]21CC [(D-) Norgestrel] (20 µM) = 0.996

### Prompt Can you share its growth? I mean this compound: CCCCNc1c(C(=O)OCC)c(C)nc2c1cnn2CC [Tracazolate hydrochloride] (20 µM)
### Response 0.943

### Prompt Further, for C[n+]1ccccc1/C=N/O [Pralidoxime chloride] (20 µM) ?
### Response 1.05

### Prompt # iterate: Nc1ccn([C@@H]2O[C@H](CO)[C@@H](O)[C@@H]2O)c(=O)n1 [Cytarabine] (20 µM)
### Response 0.571

### Prompt Same read-out for CCN1CCCC1CNC(=O)c1cc(S(=O)(=O)CC)c(N)cc1OC (stereo not given) [Amisulpride] (20 µM) ?
### Response 1.31

### Prompt Again, but for Cn1c(=O)c2c(ncn2CC(=O)O)n(C)c1=O [Acefylline] (20 µM)
### Response 1.06

### Prompt Also, OCCN1CCN(CC/C=C2/c3ccccc3Sc3ccc(C(F)(F)F)cc32)CC1 [Flupentixol dihydrochloride cis-(Z)] (20 µM) please.
### Response 0.925

### Prompt Now try COc1ccccc1Oc1c(NS(=O)(=O)c2ccc(C(C)(C)C)cc2)nc(-c2ncccn2)nc1OCCO [Bosentan] (20 µM) .
### Response 1.2

### Prompt Can you handle CCCc1nc2c(C)cc(-c3nc4ccccc4n3C)cc2n1Cc1ccc(-c2ccccc2C(=O)O)cc1 [Telmisartan] (20 µM) next?
### Response 0.953

### Prompt Similarly, O=C(O)Cc1sc(-c2ccccc2)nc1-c1ccc(Cl)cc1 [Fentiazac] (20 µM) ?
### Response 0.808

### Prompt Also OC(Cn1cncn1)(Cn1cncn1)c1ccc(F)cc1F [Fluconazole] (20 µM) ?
### Response 1.04

### Prompt Here is the next compound: CCCCCCCCc1c(CC)nc2ncnn2c1N (20 µM)
### Response 1.16

### Prompt Now the compound CCN(CC)C(=O)c1cccnc1 [Nikethamide] (20 µM)
### Response 1.13
